- testTarget: Human immunodeficiency virus type 1 reverse transcriptase (Human immunodeficiency virus 1, UniProt Q72547)
- procedureText: Inhibition of recombinant HIV-1 reverse transcriptase-associated RNase H activity using [3H]-labeled RNA as substrate after 10 mins
propertyName: IC50

Query IC50 for O=C(NCc1ccc(F)cc1)c1c(O)n(O)c(=O)c2cc([N+](=O)[O-])ccc12
4.8 µM

====

As a worked illustration, we turn to log10(IC50) data collected for Human immunodeficiency virus type 1 integrase (Human immunodeficiency virus 1).
Note: values are log10 of IC50 expressed in nM.

Some entries whose results are on file:
compound | log10(IC50)
O=C(NCc1ccccc1)c1c(O)n(O)c(=O)c2cc([N+](=O)[O-])ccc12 | 1.00
O=C(NCc1ccc(F)cc1)C1C(=O)N(O)C(=O)c2cc(Cl)ccc21 (centres undefined) | 2.15
O=C(Nc1ccc2c(c1)C(=O)N(O)C(=O)C2C(=O)NCc1ccc(F)cc1)c1ccccc1 (centres undefined) | 1.90
CC(=O)Nc1ccc2c(c1)C(=O)N(O)C(=O)C2C(=O)NCc1ccc(F)cc1 (centres undefined) | 2.00
COc1ccc2c(c1)C(=O)N(O)C(=O)C2C(=O)NCc1ccc(F)cc1 (centres undefined) | 2.41

Lab note: record log10(IC50) of O=C(NCc1ccc(F)cc1)c1c(O)n(O)c(=O)c2cc([N+](=O)[O-])ccc12 tested on Human immunodeficiency virus type 1 integrase (Human immunodeficiency virus 1).
1.00

Lab note: record log10(IC50) of O=C(Cc1cccs1)Nc1ccc2c(c1)C(=O)N(O)C(=O)C2C(=O)NCc1ccc(F)cc1 (centres undefined) tested on Human immunodeficiency virus type 1 integrase (Human immunodeficiency virus 1).
1.78

Lab note: record log10(IC50) of O=C(Cc1ccccc1)Nc1ccc2c(c1)C(=O)N(O)C(=O)C2C(=O)NCc1ccc(F)cc1 (centres undefined) tested on Human immunodeficiency virus type 1 integrase (Human immunodeficiency virus 1).
2.36

Lab note: record log10(IC50) of O=C(Nc1ccc(F)cc1)c1c(O)n(O)c(=O)c2cc([N+](=O)[O-])ccc12 tested on Human immunodeficiency virus type 1 integrase (Human immunodeficiency virus 1).
1.48

====

- testTarget: Human immunodeficiency virus type 1 reverse transcriptase (Human immunodeficiency virus 1) (UniProt Q72547)
- procedureText: Inhibition of recombinant HIV-1 reverse transcriptase-associated RNase H activity using [3H]-labeled RNA as substrate at 10 uM after 10 mins relative to control
propertyName: inhibition (%)
Response body: numeric value in %, unit text excluded.

Some entries whose results are on file:
molecule | measValue
COc1ccc2c(c1)C(=O)N(O)C(=O)C2C(=O)NCc1ccc(F)cc1 (stereo not drawn) | 15.5
O=C(NCc1ccc(F)cc1)C1C(=O)N(O)C(=O)c2cc(Br)ccc21 (stereo not drawn) | 38.7

Query inhibition for COc1ccc(CNC(=O)c2c(O)n(O)c(=O)c3cc([N+](=O)[O-])ccc23)cc1
67.2

Query inhibition for CC(=O)Nc1ccc2c(c1)C(=O)N(O)C(=O)C2C(=O)NCc1ccc(F)cc1 (stereo not drawn)
25.2

====

Item-by-item account of pIC50
- testTarget: Human immunodeficiency virus type 1 integrase (Human immunodeficiency virus 1, UniProt Q7ZJM1)
- Sequence (Q7ZJM1 whole entry): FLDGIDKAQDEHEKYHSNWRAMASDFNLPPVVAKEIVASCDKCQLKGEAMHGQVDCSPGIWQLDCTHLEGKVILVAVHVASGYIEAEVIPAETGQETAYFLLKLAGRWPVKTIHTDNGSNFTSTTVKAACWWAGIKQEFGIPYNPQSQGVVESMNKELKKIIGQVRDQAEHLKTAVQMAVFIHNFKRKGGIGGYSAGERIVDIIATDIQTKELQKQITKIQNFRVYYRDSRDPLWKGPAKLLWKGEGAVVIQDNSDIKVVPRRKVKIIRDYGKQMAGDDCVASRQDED
Friendly reminder that pIC50 comes from taking -log10 of the concentration in mol/L.

compound | pIC50
COc1ccc(CNC(=O)c2c(O)n(O)c(=O)c3cc([N+](=O)[O-])ccc23)cc1 | 8.00
N#Cc1ccc2c(C(=O)NCc3ccc(F)cc3)c(O)n(O)c(=O)c2c1 | 7.15
O=C(NCc1ccc(F)cc1)c1c(O)n(O)c(=O)c2ccc([N+](=O)[O-])cc12 | 7.52
O=C(Nc1ccc2c(c1)C(=O)N(O)C(=O)C2C(=O)NCc1ccc(F)cc1)c1ccccn1 (stereo not drawn) | 6.80
O=C(NCCc1ccc(F)cc1)c1c(O)n(O)c(=O)c2cc([N+](=O)[O-])ccc12 | 7.22

Query pIC50 for Nc1ccc2c(c1)C(=O)N(O)C(=O)C2C(=O)NCc1ccc(F)cc1 (stereo not drawn)
6.96

Query pIC50 for O=C(Nc1ccccc1)c1c(O)n(O)c(=O)c2cc([N+](=O)[O-])ccc12
8.00

Query pIC50 for CCCCCCNC(=O)c1c(O)n(O)c(=O)c2cc([N+](=O)[O-])ccc12
7.22
